Entry source: paper PMC10746280

System: RAW 264.7 macrophages
Assay: SAFIRE macrophage assay: host toxicity (adherent macrophage count, morphology)
Type: cell-based
Conditions: 25 uM
Here, each record is paired with measured 25 uM Avg Cell # Score data.
Lab note: jot the number down without any unit.

Examples with their reported 25 uM Avg Cell # Score follow.
OC(COc1cccc(C(F)(F)F)c1)CN1CCC(Nc2nccc(C(F)(F)F)n2)CC1 (stereo not drawn) [CU103] ... 71
O[C@@H](COc1ccc(Cl)c(Cl)c1)CN1CCC(Nc2nccc(C(F)(F)F)n2)CC1 [CU138] ... 75

Now turn to the next molecule.
Query :: Can you share its 25 uM Avg Cell # Score? I mean this molecule: Cc1cccc(OCC(O)CN2CCC(Nc3nccc(C(F)(F)F)n3)C2)c1 (stereo not drawn) [CU114]
Result :: 146

* * *

Here, each record is paired with measured 5 uM Avg Cell # Score data.
Test system: RAW 264.7 macrophages
Experiment: SAFIRE macrophage assay: host toxicity (adherent macrophage count, morphology)
Assay type: cell-based
Details: 5 uM
Lab note: jot the number down without any unit.

OC(COc1ccc(Cl)c(Cl)c1)CN1CCC(Oc2ncccn2)CC1 (stereo not drawn) [CU158] ... 106
OC(COc1ccc(Cl)c(Cl)c1)CN1CCCC(N2CCOCC2)C1 (stereo not drawn) [CU030] ... 57
OC(COc1ccc(Cl)cc1)CN1CCC(NC2CC2)C1 (stereo not drawn) [CU140] ... 122

Query :: Can you share its 5 uM Avg Cell # Score? I mean this compound: OC(COc1ccc(Cl)c(Cl)c1)CN1CCC2(CCN2)C1 (stereo not drawn) [CU149]
Result :: 128

Query :: Can you share its 5 uM Avg Cell # Score? I mean this compound: O=C1CN(CC(O)COc2ccc(Cl)c(Cl)c2)CCN1 (stereo not drawn) [CU184]
Result :: 91

Query :: Can you share its 5 uM Avg Cell # Score? I mean this compound: COc1ccc(OCC(O)CN2CCC(Nc3nccs3)CC2)cc1 (stereo not drawn) [CU054]
Result :: 98

Query :: Can you share its 5 uM Avg Cell # Score? I mean this compound: OC(COc1ccc(F)c(F)c1)CN1CCC(Nc2nccc(C(F)(F)F)n2)CC1 (stereo not drawn) [CU169]
Result :: 106

Query :: Can you share its 5 uM Avg Cell # Score? I mean this compound: OC(COc1cccc(C(F)(F)F)c1)CN1CCC(Nc2nccc(C(F)(F)F)n2)C1 (stereo not drawn) [CU092]
Result :: 86

Query :: Can you share its 5 uM Avg Cell # Score? I mean this compound: OC(COc1ccc(Cl)c(Cl)c1)CN1CCn2c([3F])nnc2C1 (stereo not drawn) [CU157]
Result :: 109

Query :: Can you share its 5 uM Avg Cell # Score? I mean this compound: CCOC(=O)c1cccc(OCC(O)CN2CCC(Nc3nccc(C(F)(F)F)n3)C2)c1 (stereo not drawn) [CU090]
Result :: 91

Query :: Can you share its 5 uM Avg Cell # Score? I mean this compound: O=C(C1CCN(CC(O)COc2ccc(Cl)c(Cl)c2)CC1)N1CCCC1 (stereo not drawn) [CU062]
Result :: 103

Query :: Can you share its 5 uM Avg Cell # Score? I mean this compound: CC(=O)NC1CCN(CC(O)COc2ccc(Cl)c(Cl)c2)CC1 (stereo not drawn) [CU063]
Result :: 107

Query :: Can you share its 5 uM Avg Cell # Score? I mean this compound: CC(C)C(=O)NC1CCN(CC(O)COc2ccc(Cl)c(Cl)c2)C1 (stereo not drawn) [CU069]
Result :: 96

Query :: Can you share its 5 uM Avg Cell # Score? I mean this compound: OC(CNC1CCNCC1)COc1cccc(Cl)c1 (stereo not drawn) [CU199]
Result :: 105

Query :: Can you share its 5 uM Avg Cell # Score? I mean this compound: OC(COc1ccc(-c2ccccc2)cc1)CN1CCC(Nc2nccc(C(F)(F)F)n2)CC1 (stereo not drawn) [CU077]
Result :: 35

Query :: Can you share its 5 uM Avg Cell # Score? I mean this compound: OC(COc1cccc(Cl)c1)CN1CCC(Nc2nccc(C(F)(F)F)n2)C1 (stereo not drawn) [CU085]
Result :: 92

Query :: Can you share its 5 uM Avg Cell # Score? I mean this compound: Cc1noc(CN(C)CC(O)COc2ccc(Cl)c(Cl)c2)n1 (stereo not drawn) [CU131]
Result :: 88

Query :: Can you share its 5 uM Avg Cell # Score? I mean this compound: OC(COc1ccc(Cl)c(Cl)c1)CN1CC2CC(C1)O2 (stereo not drawn) [CU223]
Result :: 106

Query :: Can you share its 5 uM Avg Cell # Score? I mean this compound: OC(COc1ccc(Cl)c(Cl)c1)CN1CCC(F)C1 (stereo not drawn) [CU125]
Result :: 81

Query :: Can you share its 5 uM Avg Cell # Score? I mean this compound: OC(COc1cccc2ccccc12)CN1CCC(Nc2nccc(C(F)(F)F)n2)CC1 (stereo not drawn) [CU079]
Result :: 86

Query :: Can you share its 5 uM Avg Cell # Score? I mean this compound: OC(COc1ccccc1)CN1CCC(Nc2nccs2)CC1 (stereo not drawn) [CU052]
Result :: 110

* * *

Test system: S. Typhimurium SL1344 (sifB::gfp) in RAW 264.7 macrophages
Experiment: SAFIRE macrophage assay: intracellular bacterial load (GFP signal within macrophages)
Assay type: cell-based, Salmonella enterica serotype Typhimurium
Conditions: 25 uM; 'Toxic' given instead of a score
reported.metric: 25 uM Avg Antibacterial Score

Examples with their reported 25 uM Avg Antibacterial Score follow.
CCOC(=O)c1cccc(OCC(O)CN2CCC(Nc3nccc(C(F)(F)F)n3)C2)c1 (centres unmarked) ... Toxic
N[C@H]1CCN(CC(O)COc2cc(Cl)cc(Cl)c2)C1 (some centres unmarked) ... 8.51
Cc1noc(CN(C)CC(O)COc2ccc(Cl)c(Cl)c2)n1 (centres unmarked) ... 86
OC(COc1ccccc1Cl)CN1CCC(Nc2nccc(C(F)(F)F)n2)CC1 (centres unmarked) ... 19
NCC1CCN(CC(O)COc2ccc(Cl)c(Cl)c2)CC1 (centres unmarked) ... Toxic
CC(C)(C)OC(=O)NC1CCN(CC(O)COc2ccc(Cl)c(Cl)c2)C1 (centres unmarked) ... Toxic
CN(C)C1CCN(CC(O)COc2ccc(Cl)c(Cl)c2)C1 (centres unmarked) ... 47
OC(COc1ccccc1Cl)CN1CCC(Nc2ncccn2)CC1 (centres unmarked) ... 61
OC(COc1ccccc1)CN1CCC(Nc2nccc(C(F)(F)F)n2)C1 (centres unmarked) ... 32
OC(COc1cccc(Br)c1)CN1CCC(Nc2nccc(C(F)(F)F)n2)C1 (centres unmarked) ... Toxic

Query :: Can you share its 25 uM Avg Antibacterial Score? I mean this molecule: OC(COc1ccc(Cl)c(Cl)c1)CN1CCN(CC2CC2)CC1 (centres unmarked)
Result :: 25

* * *

Test system: RAW 264.7 macrophages
Test: SAFIRE macrophage assay: host toxicity (adherent macrophage count, morphology)
Type: cell-based
Conditions: 25 uM
Use rule met when the recorded 25 uM Avg Cell # Score is no lower than 100; use rule not met when it is lower.

These solved cases illustrate the format of a correct answer.
CCOC(=O)c1cccc(OCC(O)CN2CCC(N)C2)c1 (stereo not drawn) ... rule met
OC(COc1cccc(Cl)c1)CN1CCC(Nc2nccc(C(F)(F)F)n2)CC1 (stereo not drawn) ... rule not met
NC1CCN(CC(O)COc2ccc(Cl)cc2Cl)C1 (stereo not drawn) ... rule met

Query :: Hello, I need to know if OC(COc1ccccc1Cl)CN1CCC(Nc2ncccn2)CC1 (stereo not drawn) has measured 25 uM Avg Cell # Score not below 100. Thanks!
Result :: rule met

Query :: Hello, I need to know if N#Cc1ccc(OCC(O)CN2CCC(N)C2)cc1 (stereo not drawn) has measured 25 uM Avg Cell # Score not below 100. Thanks!
Result :: rule met

* * *

Here, each record is paired with measured 5 uM Avg Cell # Score data.
System: RAW 264.7 macrophages
Experiment: SAFIRE macrophage assay: host toxicity (adherent macrophage count, morphology)
Format: cell-based
Conditions: 5 uM compound; n=1; DMSO solvent control = 100
Lab note: jot the number down without any unit.

Examples with their reported 5 uM Avg Cell # Score follow.
NCCC1CCN(CC(O)COc2cc(Cl)cc(Cl)c2)CC1 (stereo not shown) [CU250] ... 115
NC1CCN(CC(COc2ccc(Cl)c(Cl)c2)OCc2ccccc2)CC1 (stereo not shown) [CU241] ... 110
OC(COc1cc(Cl)cc(Cl)c1)CN1CCCC1 (stereo not shown) [CU248] ... 115
N[C@@H]1CCN(C[C@H](O)COc2ccc(Cl)c(Cl)c2)C1 [CU237] ... 125
O[C@@H](COc1ccc(Cl)c(Cl)c1)CN1CCCCC1 [CU253] ... 116
OC(COc1cc(Cl)cc(Cl)c1)CN1CCC(n2ccnc2)CC1 (stereo not shown) [CU234] ... 134
OC(CN[C@H]1[C@@H]2CNC[C@@H]21)COc1cc(Cl)cc(Cl)c1 (stereo partly shown) [CU244] ... 121
NCCC1CCN(CC(O)COc2ccc(Cl)c(Cl)c2)C1 (stereo not shown) [CU251] ... 108

Query :: Can you share its 5 uM Avg Cell # Score? I mean this compound: NCCC1CCN(CC(O)COc2ccc(Cl)c(Cl)c2)CC1 (stereo not shown) [CU249]
Result :: 123

Query :: Can you share its 5 uM Avg Cell # Score? I mean this compound: COC(COc1ccc(Cl)c(Cl)c1)CN1CCC(N)CC1 (stereo not shown) [CU242]
Result :: 123
